assay: Cytotoxicity against human Jurkat cells assessed as cell viability at 100 uM after 48 hrs by XTT assay relative to control; format: cell-based; settings: read-out: Activity
Listing of entries alongside the reported viability at 48 h, 100 µM.
reported_metric: viability at 48 h, 100 µM (%)

C[C@@H](NC(=O)OCC(F)(F)C(F)F)c1nc2ccc(F)cc2s1    82.9
CCOC(=O)N[C@H](C)c1nc2ccc(F)cc2s1    85.6
CCCCOC(=O)N[C@H](C)c1nc2ccc(F)cc2s1    66.8
C[C@@H](NC(=O)OCC(F)(F)Cl)c1nc2ccc(F)cc2s1    85.7

----------
biological target: UniProtKB P81908; experiment: Inhibition of equine serum BChE by spectrophotometric-based Ellman's method
Sequence (P81908 whole entry): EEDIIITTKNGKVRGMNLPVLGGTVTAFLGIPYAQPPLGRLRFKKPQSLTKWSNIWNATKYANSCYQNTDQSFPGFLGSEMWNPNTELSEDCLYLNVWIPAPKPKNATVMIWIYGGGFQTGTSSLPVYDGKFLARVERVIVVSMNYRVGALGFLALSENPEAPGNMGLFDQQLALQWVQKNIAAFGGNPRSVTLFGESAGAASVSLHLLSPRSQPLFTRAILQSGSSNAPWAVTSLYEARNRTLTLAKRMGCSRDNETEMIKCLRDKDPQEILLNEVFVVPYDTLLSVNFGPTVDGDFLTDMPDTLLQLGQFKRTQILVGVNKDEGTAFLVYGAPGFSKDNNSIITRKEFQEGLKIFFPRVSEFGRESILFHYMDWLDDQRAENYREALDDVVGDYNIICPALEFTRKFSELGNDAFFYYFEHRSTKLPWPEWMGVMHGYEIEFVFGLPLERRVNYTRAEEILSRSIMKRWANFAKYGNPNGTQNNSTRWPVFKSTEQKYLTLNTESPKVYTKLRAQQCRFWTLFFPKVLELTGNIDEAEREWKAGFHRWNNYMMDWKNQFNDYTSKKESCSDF
Each entry below carries its reported IC50.
reported_metric: IC50 (µM)

CCCCOC(=O)N[C@H](C)c1nc2ccc(F)cc2s1    40.9
C[C@@H](NC(=O)OCC(Cl)(Cl)Cl)c1nc2ccc(F)cc2s1    8.31
C[C@@H](NC(=O)OCC(F)(F)F)c1nc2ccc(F)cc2s1    63.4
C[C@@H](NC(=O)OCC(F)(F)Cl)c1nc2ccc(F)cc2s1    25.6
COCCOC(=O)N[C@H](C)c1nc2ccc(F)cc2s1    66.3
C[C@@H](NC(=O)OC(C)(C)C)c1nc2ccc(F)cc2s1    23.1
C[C@@H](NC(=O)OCC(F)(F)C(F)F)c1nc2ccc(F)cc2s1    25
C[C@@H](NC(=O)OCCCl)c1nc2ccc(F)cc2s1    41.2
CCCOC(=O)N[C@H](C)c1nc2ccc(F)cc2s1    34.6
C[C@@H](NC(=O)OCCCCl)c1nc2ccc(F)cc2s1    38.8
CCOC(=O)N[C@H](C)c1nc2ccc(F)cc2s1    20.1
C[C@@H](NC(=O)OCCBr)c1nc2ccc(F)cc2s1    38.4

----------
assay: Selectivity ratio of IC50 for electric eel AChE to IC50 for equine serum BChE
The entries below are paired with their reported Ratio IC50.
reported_metric: Ratio IC50

COC(=O)N[C@H](C)c1nc2ccc(F)cc2s1    0.15
CC(C)COC(=O)N[C@H](C)c1nc2ccc(F)cc2s1    0.32
CCCOC(=O)N[C@H](C)c1nc2ccc(F)cc2s1    0.38
C[C@@H](NC(=O)OCC(F)(F)C(F)F)c1nc2ccc(F)cc2s1    0.27
CCOC(=O)N[C@H](C)c1nc2ccc(F)cc2s1    0.3
C[C@@H](NC(=O)OC(C)(C)C)c1nc2ccc(F)cc2s1    0.46

----------
experiment: Selectivity ratio of IC50 for electric eel AChE to IC50 for equine serum BChE
reported_metric: Ratio IC50

C[C@@H](NC(=O)OCC(Cl)(Cl)Cl)c1nc2ccc(F)cc2s1    11.1
C[C@@H](NC(=O)OCCCl)c1nc2ccc(F)cc2s1    0.31
CC(C)OC(=O)N[C@H](C)c1nc2ccc(F)cc2s1    0.51
C[C@@H](NC(=O)OCCCCl)c1nc2ccc(F)cc2s1    2.07

----------
assay: Selectivity ratio of IC50 for electric eel AChE to IC50 for equine serum BChE
reported_metric: Ratio IC50

COCCOC(=O)N[C@H](C)c1nc2ccc(F)cc2s1    0.85
C[C@@H](NC(=O)OCCBr)c1nc2ccc(F)cc2s1    0.3
C[C@@H](NC(=O)OCC(F)(F)C(F)(F)C(F)(F)F)c1nc2ccc(F)cc2s1    1.1
CCCCOC(=O)N[C@H](C)c1nc2ccc(F)cc2s1    0.23
C[C@@H](NC(=O)OCC(F)(F)F)c1nc2ccc(F)cc2s1    0.64
C[C@@H](NC(=O)OCC(F)(F)Cl)c1nc2ccc(F)cc2s1    0.32
